biological target: PRMT5/MEP50 (Homo sapiens, UniProt O14744); test: MTase-Glo methyl transferase assay, Method A (Histone H4 peptide, 1 µM MTA, 24 h pre-incubation); assay type: biochemical; set-up: made in house; conditions: read-out: PRMT5 MTase Glo Ki (nM, Meth. A)
Sequence (O14744 whole entry): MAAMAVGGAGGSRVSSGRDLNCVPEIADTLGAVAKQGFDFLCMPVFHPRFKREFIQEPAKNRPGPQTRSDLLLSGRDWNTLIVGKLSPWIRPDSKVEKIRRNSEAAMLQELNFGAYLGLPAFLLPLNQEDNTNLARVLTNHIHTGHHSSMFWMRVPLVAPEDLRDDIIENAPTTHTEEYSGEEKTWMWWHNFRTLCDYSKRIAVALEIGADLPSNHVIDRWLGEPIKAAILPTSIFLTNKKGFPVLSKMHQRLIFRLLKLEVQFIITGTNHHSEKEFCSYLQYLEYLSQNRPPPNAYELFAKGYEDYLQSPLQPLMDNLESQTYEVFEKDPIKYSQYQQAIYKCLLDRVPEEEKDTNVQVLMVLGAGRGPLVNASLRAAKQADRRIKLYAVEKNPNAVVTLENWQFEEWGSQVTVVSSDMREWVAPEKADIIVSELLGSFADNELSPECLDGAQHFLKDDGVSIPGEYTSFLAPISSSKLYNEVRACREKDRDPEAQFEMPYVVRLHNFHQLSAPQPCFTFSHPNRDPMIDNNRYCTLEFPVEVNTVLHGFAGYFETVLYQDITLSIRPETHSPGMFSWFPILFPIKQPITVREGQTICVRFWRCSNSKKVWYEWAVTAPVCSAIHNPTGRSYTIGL
Sequence (Q9BQA1 whole entry partner): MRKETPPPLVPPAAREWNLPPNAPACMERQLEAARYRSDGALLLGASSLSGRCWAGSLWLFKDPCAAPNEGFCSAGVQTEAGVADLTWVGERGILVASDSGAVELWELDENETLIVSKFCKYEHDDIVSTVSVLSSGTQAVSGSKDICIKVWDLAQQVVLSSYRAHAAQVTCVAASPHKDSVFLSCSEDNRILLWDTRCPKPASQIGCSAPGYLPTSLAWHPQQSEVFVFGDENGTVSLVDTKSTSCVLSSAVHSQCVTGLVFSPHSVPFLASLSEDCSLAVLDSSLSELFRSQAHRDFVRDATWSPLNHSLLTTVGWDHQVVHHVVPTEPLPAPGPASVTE
experimental readout: log10(Ki) (log10 of the value in nM)
Answers are given as log10 of Ki in nM.

Check out these entries, answers already filled in.
Cc1cc2cc(C(=O)N(Cc3ccc(Br)nn3)[C@@H]3CCC[C@H]3O)ccc2nc1N: -0.74
CC[C@H](c1ncccn1)N(Cc1ccc(C(F)(F)F)nn1)C(=O)c1ccc2nc(N)c(C)cc2c1 (single isomer, unassigned): -1.22
Cc1cc2cc(C(=O)N(Cc3ccc(C(F)(F)F)cn3)[C@H](C)c3cnccn3)cnc2nc1N: -0.17
Cc1cc2cc(C(=O)N(Cc3ccc(C(F)(F)F)cn3)[C@H](C)c3ccc(F)cc3)ccc2nc1N: -1.10
Cc1cc(CN(Cc2ccc(C(F)(F)F)cn2)C(=O)c2cc3cc(C)c(N)nc3cc2F)no1: 0.01

Consider the compound `Cc1cc2cc(C(=O)N(Cc3ccc(Cl)cn3)[C@H](C)c3ncccc3F)ccc2nc1N` and give its measured log10(Ki). -1.10

Fill in: log10(Ki) of `C[C@H](c1ncccn1)N(Cc1ccc(Cl)cn1)C(=O)c1cnc2nc(N)c(Br)cc2c1` is ___ -0.52

The measured values listed here are drawn from patent US20230159510A1.
